Test system: UM-UC-3 (Bladder Carcinoma)
Assay: Bliss excess, mean over the matrix (fraction); higher = more synergy;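 note: after 72 h of two-drug dosing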
OUTCOME_MEASURE: Bliss excess
Numbers only.

compound="C=CCn1c(=O)c2cnc(Nc3ccc(N4CCN(C)CC4)cc3)nc2n1-c1cccc(C(C)(C)O)n1 [AZD1775] + O=C(c1cc(Cc2n[nH]c(=O)c3ccccc23)ccc1F)N1CCN(C(=O)C2CC2)CC1 [Olaparib] (first compound max 1 µM, partner max 10 µM)" measured=0.0251
compound="Cc1c2c(nn1C)CSCc1cc(n(C)n1)CSc1cc(c3ccccc3c1)OCCCc1c(C(=O)O)n(C)c3c-2c(Cl)ccc13 [AZD5991] + C[C@@H]1COCCN1C2=NC(=NC(=C2)C3(CC3)[S@](=N)(=O)C)C4=C5C=CNC5=NC=C4 [AZD6738] (first compound max 1 µM, 7x7, partner max 10 µM)" measured=0.0159
compound="Cc1c2c(nn1C)CSCc1cc(n(C)n1)CSc1cc(c3ccccc3c1)OCCCc1c(C(=O)O)n(C)c3c-2c(Cl)ccc13 [AZD5991] + CS(=O)(=O)CCNCc1ccc(-c2ccc3ncnc(Nc4ccc(OCc5cccc(F)c5)c(Cl)c4)c3c2)o1 [Lapatinib] (first compound max 1 µM, 7x7, partner max 10 µM)" measured=-0.001

Now for the compound whose Bliss excess we want.
Please look at this compound and report its Bliss excess: CC(=O)c1c(C)c2cnc(Nc3ccc(N4CCNCC4)cn3)nc2n(C2CCCC2)c1=O [Palbociclib] + Cc1c2c(nn1C)CSCc1cc(n(C)n1)CSc1cc(c3ccccc3c1)OCCCc1c(C(=O)O)n(C)c3c-2c(Cl)ccc13 [AZD5991] (first compound max 10 µM, 7x7, partner max 1 µM)
-0.0212

* * *

Assign Bliss excess to each entry below.
System: KYSE-520 (Esophageal Squamous Cell Carcinoma)
Assay: Bliss excess, mean over the matrix (fraction); higher = more synergy

Illustrative cases are given below, each with its answer.
compound="C=CCn1c(=O)c2cnc(Nc3ccc(N4CCN(C)CC4)cc3)nc2n1-c1cccc(C(C)(C)O)n1 [AZD1775] + O=C(c1cc(Cc2n[nH]c(=O)c3ccccc23)ccc1F)N1CCN(C(=O)C2CC2)CC1 [Olaparib] (first compound max 1 µM, partner max 10 µM)" measured=-0.0301
compound="CCN(CCO)CCCOc1ccc2c(Nc3cc(CC(=O)Nc4cccc(F)c4)[nH]n3)ncnc2c1 [AZD2811] + C=CCn1c(=O)c2cnc(Nc3ccc(N4CCN(C)CC4)cc3)nc2n1-c1cccc(C(C)(C)O)n1 [AZD1775] (first compound max 1 µM, partner max 1 µM)" measured=-0.0048
compound="CC1(C)CCC(CN2CCN(c3ccc(C(=O)NS(=O)(=O)c4ccc(NCC5CCOCC5)c([N+](=O)[O-])c4)c(Oc4cnc5[nH]ccc5c4)c3)CC2)=C(c2ccc(Cl)cc2)C1 [Venetoclax] + Cc1cc2ncnn2cc1Nc1ncc2c(n1)n(C1CCOCC1)c(=O)n2C [AZD7648] (first compound max 1 µM, 7x7, partner max 10 µM)" measured=-0.0284
compound="CC1(C)CCC(CN2CCN(c3ccc(C(=O)NS(=O)(=O)c4ccc(NCC5CCOCC5)c([N+](=O)[O-])c4)c(Oc4cnc5[nH]ccc5c4)c3)CC2)=C(c2ccc(Cl)cc2)C1 [Venetoclax] + Cn1cnc2c(F)c(Nc3ccc(Br)cc3Cl)c(C(=O)NOCCO)cc21 [Selumetinib] (first compound max 1 µM, 7x7, partner max 3 µM)" measured=-0.0836
compound="CC1(C)CCC(CN2CCN(c3ccc(C(=O)NS(=O)(=O)c4ccc(NCC5CCOCC5)c([N+](=O)[O-])c4)c(Oc4cnc5[nH]ccc5c4)c3)CC2)=C(c2ccc(Cl)cc2)C1 [Venetoclax] + C=CCn1c(=O)c2cnc(Nc3ccc(N4CCN(C)CC4)cc3)nc2n1-c1cccc(C(C)(C)O)n1 [AZD1775] (first compound max 1 µM, partner max 1 µM)" measured=-0.0907

I would be grateful if you could provide Bliss excess for each of the following entries.
1. Cc1c2c(nn1C)CSCc1cc(n(C)n1)CSc1cc(c3ccccc3c1)OCCCc1c(C(=O)O)n(C)c3c-2c(Cl)ccc13 [AZD5991] + C[C@@H]1COCCN1C2=NC(=NC(=C2)C3(CC3)[S@](=N)(=O)C)C4=C5C=CNC5=NC=C4 [AZD6738] (first compound max 1 µM, 7x7, partner max 10 µM)
2. CC(=O)c1c(C)c2cnc(Nc3ccc(N4CCNCC4)cn3)nc2n(C2CCCC2)c1=O [Palbociclib] + Cc1c2c(nn1C)CSCc1cc(n(C)n1)CSc1cc(c3ccccc3c1)OCCCc1c(C(=O)O)n(C)c3c-2c(Cl)ccc13 [AZD5991] (first compound max 10 µM, 7x7, partner max 1 µM)
3. Cc1nc(Nc2ncc(C(=O)Nc3c(C)cccc3Cl)s2)cc(N2CCN(CCO)CC2)n1 [Dasatinib] + CC(=O)Nc1cccc(-n2c(=O)n(C3CC3)c(=O)c3c(Nc4ccc(I)cc4F)n(C)c(=O)c(C)c32)c1 [Trametinib] (first compound max 2 µM, 7x7, partner max 1 µM)
4. Cc1c2c(nn1C)CSCc1cc(n(C)n1)CSc1cc(c3ccccc3c1)OCCCc1c(C(=O)O)n(C)c3c-2c(Cl)ccc13 [AZD5991] + CCN(CCO)CCCOc1ccc2c(Nc3cc(CC(=O)Nc4cccc(F)c4)[nH]n3)ncnc2c1 [AZD2811] (first compound max 1 µM, 7x7, partner max 1 µM)

0.0162
-0.0686
-0.0902
-0.0272

Please look at this compound and report its Bliss excess: C=CCn1c(=O)c2cnc(Nc3ccc(N4CCN(C)CC4)cc3)nc2n1-c1cccc(C(C)(C)O)n1 [AZD1775] + C[C@@H]1COCCN1C2=NC(=NC(=C2)C3(CC3)[S@](=N)(=O)C)C4=C5C=CNC5=NC=C4 [AZD6738] (first compound max 1 µM, partner max 10 µM)
-0.003

* * *

Tested on: RO82-W-1 (Thyroid Gland Carcinoma)
Experiment: Bliss excess, mean over the matrix (fraction); higher = more synergy
Give 1.0 when the value for Bliss excess is at least -0.04. Give 0.0 when it is less.

Below are worked cases with known answers.
compound="N#Cc1cnc(Nc2cc(NC[C@H]3CNCCO3)c(C(F)(F)F)cn2)cn1 [SRA737] + C=CCn1c(=O)c2cnc(Nc3ccc(N4CCN(C)CC4)cc3)nc2n1-c1cccc(C(C)(C)O)n1 [AZD1775] (first compound max 10 µM, partner max 1 µM)" label=0.0
compound="CN(CCO)CC[C@H](CSc1ccccc1)Nc1ccc(S(=O)(=O)NC(=O)c2ccc(N3CCC([C@@H](O)c4ccccc4-c4ccc(Cl)cc4)CC3)cc2)cc1S(=O)(=O)C(F)(F)F [AZD4320] + C=CCn1c(=O)c2cnc(Nc3ccc(N4CCN(C)CC4)cc3)nc2n1-c1cccc(C(C)(C)O)n1 [AZD1775] (first compound max 1 µM, partner max 1 µM)" label=1.0
compound="CN(C)CCCOc1ccc(-c2ccc3ncc4c(c3c2)n(C2CCOCC2)c(=O)n4C)cn1 [AZD0156] + CCN(CCO)CCCOc1ccc2c(Nc3cc(CC(=O)Nc4cccc(F)c4)[nH]n3)ncnc2c1 [AZD2811] (first compound max 1 µM, 7x7, partner max 1 µM)" label=0.0
compound="C[C@@H]1COCCN1c1cc(C2([S@](C)(=N)=O)CC2)nc(-c2ccnc3[nH]ccc23)n1 [AZD6738] + C1CC(C1)(C(=O)[O-])C(=O)[O-].N.N.[Pt+2] [Carboplatin] (first compound max 10 µM, 7x7, partner max 10 µM)" label=1.0

Confirm if Bliss excess reported for the compound COc1nnc2ccc(N3CCC(c4ccc(OCCN5CCN(C)C(=O)[C@H]5C)cc4)CC3)nn12 [AZD5153] + Cn1cnc2c(F)c(Nc3ccc(Br)cc3Cl)c(C(=O)NOCCO)cc21 [Selumetinib] (first compound max 1 µM, 7x7, partner max 10 µM) is -0.04 or above.
1.0

Confirm if Bliss excess reported for the compound C[C@@H]1COCCN1c1cc(C2([S@](C)(=N)=O)CC2)nc(-c2ccnc3[nH]ccc23)n1 [AZD6738] + O=C(c1cc(Cc2n[nH]c(=O)c3ccccc23)ccc1F)N1CCN(C(=O)C2CC2)CC1 [Olaparib] (first compound max 10 µM, 7x7, partner max 10 µM) is -0.04 or above.
0.0

Confirm if Bliss excess reported for the compound Cc1c2c(nn1C)CSCc1cc(n(C)n1)CSc1cc(c3ccccc3c1)OCCCc1c(C(=O)O)n(C)c3c-2c(Cl)ccc13 [AZD5991] + CC(=O)O[C@H]1C(=O)[C@@]2(C)[C@H]([C@H](OC(=O)c3ccccc3)[C@]3(O)C[C@H](OC(=O)[C@H](O)[C@@H](NC(=O)c4ccccc4)c4ccccc4)C(C)=C1C3(C)C)[C@]1(OC(C)=O)CO[C@@H]1C[C@@H]2O [Paclitaxel] (first compound max 1 µM, 7x7, partner max 3 µM) is -0.04 or above.
1.0

Confirm if Bliss excess reported for the compound NC1(C(=O)N[C@@H](CCO)c2ccc(Cl)cc2)CCN(c2ncnc3[nH]ccc23)CC1 [Capivasertib] + CCN(CCO)CCCOc1ccc2c(Nc3cc(CC(=O)Nc4cccc(F)c4)[nH]n3)ncnc2c1 [AZD2811] (first compound max 10 µM, 7x7, partner max 1 µM) is -0.04 or above.
0.0

Confirm if Bliss excess reported for the compound CS(=O)(=O)CCNCc1ccc(-c2ccc3ncnc(Nc4ccc(OCc5cccc(F)c5)c(Cl)c4)c3c2)o1 [Lapatinib] + Cn1cnc2c(F)c(Nc3ccc(Br)cc3Cl)c(C(=O)NOCCO)cc21 [Selumetinib] (first compound max 10 µM, 7x7, partner max 10 µM) is -0.04 or above.
1.0
